Biological target: Recombinant human LTC4 synthase (Homo sapiens, UniProt Q16873)
Construct: made in house; host or cells: Pichia pastoris ('Piccia pastoralis' [sic])
Sequence (Q16873 1-150): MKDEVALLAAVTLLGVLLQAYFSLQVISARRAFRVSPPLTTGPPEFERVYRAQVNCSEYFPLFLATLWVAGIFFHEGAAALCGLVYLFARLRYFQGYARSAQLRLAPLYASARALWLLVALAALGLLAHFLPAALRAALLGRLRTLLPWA
Experiment: LTC4 synthase assay (conversion of LTA4 methyl ester to LTC4 methyl ester, HPLC)
Type: biochemical
Conditions: inhibitor concentration 10 μM; read-out: Percantage Inhibition at 10 μM (unless specified otherwise)

>  <molecule>
CN(c1ccc(Cl)cc1)c1ccc(C(=O)c2ccc(Oc3ccccc3Cl)c(C(=O)O)c2)cc1

>  <inhibition at 10 µM / %>
97

$$$$
>  <molecule>
O=C(c1ccc(NS(=O)(=O)c2ccc(Cl)c(Cl)c2)c(C(=O)O)c1)c1ccc(NS(=O)(=O)c2ccc(Cl)c(Cl)c2)c(C(=O)O)c1

>  <inhibition at 10 µM / %>
98

$$$$
>  <molecule>
CCOc1ccc(NC(=O)Nc2ccc(C(=O)c3ccc(Nc4ccc(F)c(F)c4)c(C(=O)O)c3)cc2)cc1

>  <inhibition at 10 µM / %>
100

$$$$
>  <molecule>
CN(c1ccc(Cl)cc1)c1ccc(C(=O)c2ccc(Oc3cccc(Cl)c3Cl)c(C(=O)O)c2)cc1

>  <inhibition at 10 µM / %>
66

$$$$
>  <molecule>
O=C(c1ccc(Nc2ccc(F)c(F)c2)c(C(=O)O)c1)c1ccc(Nc2ccc(F)c(F)c2)c(C(=O)O)c1

>  <inhibition at 10 µM / %>
93

$$$$
>  <molecule>
CN(c1ccc(Cl)cc1)c1ccc(C(=O)c2ccc(NC3CCC(C(C)(C)C)CC3)c(C(=O)O)c2)cc1 (stereo not drawn)

>  <inhibition at 10 µM / %>
86

$$$$
>  <molecule>
O=C(c1ccc(NS(=O)(=O)c2ccc(Cl)cc2)cc1)c1ccc(NC(=O)c2cc(Cl)ccc2O)c(C(=O)O)c1

>  <inhibition at 10 µM / %>
96

$$$$
>  <molecule>
O=C(Nc1ccc(C(=O)c2ccc(NS(=O)(=O)c3ccc(Cl)cc3)c(C(=O)O)c2)cc1)c1cccc(Cl)c1

>  <inhibition at 10 µM / %>
100

$$$$
>  <molecule>
O=C(c1ccc(Nc2ccc(Cl)cc2)cc1)c1ccc(Nc2ccc(F)c(F)c2)c(C(=O)O)c1

>  <inhibition at 10 µM / %>
94

$$$$
>  <molecule>
CN(c1ccc(Cl)cc1)c1ccc(C(=O)c2ccc(Oc3ccc(F)c(F)c3)c(C(=O)O)c2)cc1

>  <inhibition at 10 µM / %>
90

$$$$
>  <molecule>
O=C(c1ccc(Nc2ccc(Cl)cc2)c(C(=O)O)c1)c1ccc(Nc2ccc(Cl)cc2)c(C(=O)O)c1

>  <inhibition at 10 µM / %>
97

$$$$
>  <molecule>
CCCCOc1ccc(S(=O)(=O)Nc2ccc(C(=O)c3ccc(NC(=O)c4ccc(OC(C)C)cc4)c(C(=O)O)c3)cc2C(=O)O)cc1

>  <inhibition at 10 µM / %>
100

$$$$
